Record set of MED for target or system Estrogen receptor (Rattus norvegicus) (UniProt P06211+Q62986).

{"columns": ["compound", "qualifier_sign", "MED [mg/kg]"],
 "data": [
  ["Oc1ccc2c(c1)OC(c1ccc(OCCN3CCCCC3)cc1)c1c-2sc2ccccc12 (stereo not given)", ">", 10],
  ["Oc1ccc2c3c(sc2c1)-c1ccccc1OC3c1ccc(OCCN2CCCCC2)cc1 (stereo not given)", ">", 10],
  ["Oc1ccc2c(c1)OC(c1ccc(OCCN3CCCCC3)cc1)c1c-2oc2cc(O)ccc12 (stereo not given)", ">", 10],
  ["Oc1ccc2c(c1)OC(c1ccc(OCCN3CCCCC3)cc1)c1c-2sc2cc(O)ccc12 (stereo not given)", ">", 10],
  ["c1ccc2c(c1)OC(c1ccc(OCCN3CCCCC3)cc1)c1c-2sc2ccccc12 (stereo not given)", "=", 0.1],
  ["Oc1ccc2c(c1)OC(c1ccc(OCCN3CCCC3)cc1)c1c-2sc2cc(O)ccc12 (stereo not given)", "=", 0.1],
  ["Oc1ccc2c(c1)OC(c1ccc(OCCN3CCOCC3)cc1)c1c-2sc2cc(O)ccc12 (stereo not given)", "=", 1],
  ["O=C1CCCN1CCOc1ccc(C2Oc3cc(O)ccc3-c3sc4cc(O)ccc4c32)cc1 (stereo not given)", "=", 3],
  ["CCN(CC)CCOc1ccc(C2Oc3cc(O)ccc3-c3sc4cc(O)ccc4c32)cc1 (stereo not given)", "=", 0.1],
  ["CN(C)CCOc1ccc(C2Oc3cc(O)ccc3-c3sc4cc(O)ccc4c32)cc1 (stereo not given)", "=", 0.1]
]}

All values here come from ChEMBL document CHEMBL1131328.
